Test: Blood levels after single intramuscular administration to mice
Settings: mouse, blood, im, 20 mg/kg
REPORTED ENDPOINT: concentration at 1.5 h

concentration at 1.5 h for "CC(C)(O/N=C(\C(=O)N[C@@H]1C(=O)N2C(C(=O)[O-])=C(C[n+]3ccccc3)CS[C@H]12)c1csc(N)n1)C(=O)O" is ~800 ng/mL

concentration at 1.5 h for CO/N=C(\C(=O)NC1C(=O)N2C(C(=O)[O-])=C(C[N+]3(C)CCCC3)CSC12)c1csc(N)n1 (stereo not drawn) is ~900 ng/mL

concentration at 1.5 h for "CO/N=C(\C(=O)N[C@@H]1C(=O)N2C(C(=O)O)=C(COC(C)=O)CS[C@H]12)c1csc(N)n1" is 1200 ng/mL
